src = paper PMC9231089

Tested on: Bx-PC3
Experiment: Combination assay with sorafenib (MTT), Bx-PC3
Format: cell-based, human
value kind: reduction of sorafenib IC50 in the presence of the substance (fold)
Numbers only; they are read as fold.

molecule: C=C1CC/C=C(\C)CC[C@@H]2[C@@H]1CC2(C)C [β-Caryophyllene, β-caryophyllene]
uom: fold
value observed: 5

Now look at this one.
Can you look up the measured reduction of sorafenib IC50 in the presence of the substance of C=C1CC[C@H]2O[C@]2(C)CC[C@@H]2[C@@H]1CC2(C)C [β-Caryophyllene oxide, β-caryophyllene oxide] for me?
9

---

Tested on: Mz-ChA-1
Assay: MTT cytotoxicity assay, substances alone, Mz-ChA-1
Type: cell-based, human
Details: Mz-ChA-1; 50 µg/mL
value kind: inhibition of cell viability (%)
Numbers only; they are read as %.

molecule: C=C1CC[C@H]2O[C@]2(C)CC[C@@H]2[C@@H]1CC2(C)C [β-Caryophyllene oxide, β-caryophyllene oxide]
value kind: inhibition of cell viability
value observed: 16

Notebook entry, Mz-ChA-1 assay: inhibition of cell viability of C=C1CC/C=C(\C)CC[C@@H]2[C@@H]1CC2(C)C = ?
35

---

molecules and their reported increase of STAT3 phosphorylation at tyrosine 705
Tested on: phospho(Tyr705)-STAT3
Experiment: Western blotting of STAT3 phosphorylation in Bx-PC3 cells
Type: cell-based, human
Settings: substance alone, sorafenib and sesquiterpenes 10 μg/mL, verapamil/MK571 1 μg/mL, normalized to total STAT3
Structures can show the parent of a compound that is named as a salt.
Numbers only; they are read as fold.

molecule: COc1ccc(CCN(C)CCCC(C#N)(c2ccc(OC)c(OC)c2)C(C)C)cc1OC (centres unmarked) [Verapamil, verapamil hydrochloride, reference compound]
value observed: 1.1

molecule: CNC(=O)c1cc(Oc2ccc(NC(=O)Nc3ccc(Cl)c(C(F)(F)F)c3)cc2)ccn1 [Sorafenib, sorafenib tosylate]
value observed: 4.6

Can you look up the measured increase of STAT3 phosphorylation at tyrosine 705 of CN(C)C(=O)CCSC(SCCC(=O)O)c1cccc(/C=C/c2ccc3ccc(Cl)cc3n2)c1 (centres unmarked) [MK571, reference compound] for me?
1.5
